Tested on: 485368-065-R4-J2-PDC spheroids with HUVEC/MSC, viability;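 also: spheroids exposed to compounds for seven days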
Assay: Anticancer human tumor 485368-065-R4-J2-PDC patient-derived pancreatic carcinoma cell line growth inhibition [CLK]
Conditions: second compound 10 µM; first compound 10 µM; stronger effect = lower value
API: label(entry) gives True if the entry's viability, T/C is strictly smaller than 20%; on equality or larger values it gives False.

- C=C(F)C(=O)N1CCN(c2nc(OCC3CCCN3C)nc3c2CCN(c2cccc4cccc(Cl)c24)C3)CC1CC#N (stereo not given) + CN1CCN(c2cc(C(=O)Nc3cc4cc(-c5cnn(C)c5)ccc4cn3)ccn2)CC1: True
- COc1cccc2c1C(=O)c1c(O)c3c(c(O)c1C2=O)CC(O)(C(=O)CO)CC3OC1CC(N)C(O)C(C)O1 (stereo not given) + CNC(=O)c1ccc(Nc2nc(OC3CCCC3)c3c(-c4ccc5nc(C)oc5c4)c[nH]c3n2)c(OC)c1: True
- Nc1ccccc1NC(=O)c1ccc(CNC(=O)OCc2cccnc2)cc1 + CNC(=O)c1ccc(Nc2nc(OC3CCCC3)c3c(-c4ccc5nc(C)oc5c4)c[nH]c3n2)c(OC)c1: False
- CC1COCCN1c1cc(C2(S(C)(=N)=O)CC2)nc(-c2ccnc3[nH]ccc23)n1 (stereo not given) + CN1CCN(c2cc(C(=O)Nc3cc4cc(-c5cnn(C)c5)ccc4cn3)ccn2)CC1: True
- CC1(C)CCC(CN2CCN(c3ccc(C(=O)NS(=O)(=O)c4ccc(NCC5CCOCC5)c([N+](=O)[O-])c4)c(Oc4cnc5[nH]ccc5c4)c3)CC2)=C(c2ccc(Cl)cc2)C1 + CN1CCN(c2cc(C(=O)Nc3cc4cc(-c5cnn(C)c5)ccc4cn3)ccn2)CC1: True
